- Test system: Hyperlipidemic Hamster
- assay.comment: In Vivo Assay of Hypolipidemic Agents Using the Hyperlipidemic Hamster
- condition.notes: Mesocricetus auratus, po, 168 h, 50 mg/kg once daily oral, 7 days; percent change versus control, negative = lowering; read-out: % Reduction (in vivo) Cholest. Esters
Group membership follows change in vivo at 50 mg/kg per the scheme class 0: < -50%; class 1: ≥ -50% and < -30%; class 2: ≥ -30%

compound: COc1ccc([C@H]2[C@@H](CCCc3ccccc3)C(=O)N2c2ccc(OCc3ccccc3)cc2)cc1 (relative stereo) [Example 35]
discrete.label: class 1
//
compound: COc1ccc([C@@H]2[C@@H](CCCc3ccccc3)C(=O)N2c2ccc3c(c2)CCC3)cc1 (relative stereo) [Example 7AR]
discrete.label: class 0
//
compound: CCCCCCCCCC[C@@]1(CC)C(=O)N(c2c(OC)cc(OC)cc2OC)[C@@H]1c1ccccc1 (relative stereo) [Example 3W]
discrete.label: class 2
//
compound: COc1ccc(N2C(=O)[C@H](CCCc3ccccc3)[C@H]2c2ccco2)cc1 (relative stereo) [Example 1BD]
discrete.label: class 2
//
compound: COc1ccc(N2C(=O)[C@H](CCCc3ccccc3)[C@@H]2c2ccc(C(F)(F)F)cc2)cc1 (relative stereo) [Example 1BH]
discrete.label: class 2
//
compound: COc1ccc(N2C(=O)[C@H](CCCc3ccccc3)[C@H]2c2ccc(C=O)cc2)cc1 (relative stereo) [Example 16A]
discrete.label: class 0
//
compound: COc1ccc(N2C(=O)[C@H](CCCc3ccccc3)[C@H]2c2ccc(Oc3ccccc3)cc2)cc1 (relative stereo) [Example 5V]
discrete.label: class 0
//
compound: COc1ccc([C@@H]2[C@@H](CCOc3ccc([N+](=O)[O-])cc3)C(=O)N2c2ccccc2)cc1 (relative stereo) [Example 7AN]
discrete.label: class 1
//
compound: COc1ccc([C@H]2[C@@H](CCOc3ccc(F)cc3)C(=O)N2c2ccc(OC)cc2)cc1 (relative stereo) [Example 1CG]
discrete.label: class 0

---

- Tested on: Hyperlipidemic Hamster
- assay.comment: In Vivo Assay of Hypolipidemic Agents Using the Hyperlipidemic Hamster
- condition.notes: Mesocricetus auratus, po, 168 h, 50 mg/kg once daily oral, 7 days; percent change versus control, negative = lowering; read-out: % Reduction (in vivo) Cholest. Esters
Just a reminder that ties go to condition not met: only change in vivo at 50 mg/kg strictly below -30% counts as condition met.

compound: COc1ccc(N2C(=O)[C@H](CCCc3ccccc3)[C@H]2c2ccc(NC(C)=O)cc2)cc1 (relative stereo) [Example 26]
discrete.label: condition not met
//
compound: COc1ccc(N2C(=O)[C@H](CCCc3ccccc3)[C@@H]2c2ccc(NS(C)(=O)=O)cc2)cc1 (relative stereo) [Example 25]
discrete.label: condition met
//
compound: COc1ccc(N2C(=O)[C@H](CCCc3ccccc3)[C@@H]2c2ccc(-c3ccccc3)cc2)cc1 (relative stereo) [Example 1BT]
discrete.label: condition not met
//
compound: COc1ccc(N2C(=O)[C@H](CCCc3ccccc3)[C@H]2c2ccc(OC)cc2OC)cc1 (relative stereo) [Example 7X]
discrete.label: condition met
//
compound: CC[C@]1(CCCc2ccccc2)C(=O)N(c2ccc(OC)cc2)[C@H]1c1ccccc1 (relative stereo) [Example 3E]
discrete.label: condition not met
//
compound: COc1ccc(N2C(=O)[C@@H](CCCc3ccccc3)[C@@H]2c2ccsc2)cc1 (relative stereo) [Example 1BP]
discrete.label: condition not met
//
compound: COc1ccc(N2C(=O)[C@@H](CCCc3ccccc3)[C@@H]2c2ccc([N+](=O)[O-])cc2)cc1 (relative stereo) [Example 1G]
discrete.label: condition not met
//
compound: COC(=O)CCC(=O)Oc1ccc(C2C(CCCc3ccccc3)C(=O)N2c2ccc(OC)cc2)cc1 (stereo not shown) [Example 34]
discrete.label: condition met
//
compound: COc1ccc([C@@H]2[C@H](NC(=O)COc3ccccc3)C(=O)N2c2ccccc2)cc1 (relative stereo) [Example 12B]
discrete.label: condition not met
//
compound: COCOc1ccc([C@@H]2[C@@H](CCCc3ccccc3)C(=O)N2c2ccccc2)cc1 (relative stereo) [Example 7T]
discrete.label: condition met
//
compound: COc1ccc(C(=O)[C@@H]2[C@H](CCCc3ccccc3)C(=O)N2c2ccc(OC)cc2)cc1 (relative stereo) [Example 7W]
discrete.label: condition not met
//
compound: COc1ccc([C@@H]2[C@@H]([C@H]3C[C@H]3Cc3ccccc3)C(=O)N2c2ccc(OC)cc2)cc1 (relative stereo) [Example 36]
discrete.label: condition met
//
compound: COc1ccc(N2C(=O)[C@H](CCCc3ccccc3)[C@H]2c2ccc(CN3CCOCC3)cc2)cc1 (relative stereo) [Example 19]
discrete.label: condition met
//
compound: C=CCOc1ccc([C@H]2[C@@H](CCCc3ccccc3)C(=O)N2c2ccc(OC)cc2)cc1 (relative stereo) [Example 1BU]
discrete.label: condition met
//
compound: COc1ccc([C@@H]2[C@H](N3C(=O)c4ccccc4C3=O)C(=O)N2c2ccccc2)cc1 (relative stereo) [Example 7L]
discrete.label: condition not met
//
compound: COc1ccc(N2C(=O)[C@H](CCCc3ccccc3)[C@@H]2c2ccc(SC)cc2)cc1 (relative stereo) [Example 1AU]
discrete.label: condition not met
//
compound: CC[C@@]1(CCCc2ccccc2)C(=O)N(c2ccc(OC)cc2)[C@H]1CCc1ccccc1 (relative stereo) [Example 6]
discrete.label: condition not met
//
compound: CC[C@@]1(CCCc2ccccc2)C(=O)N(c2ccc(OC)cc2)[C@H]1c1ccc(OC)cc1 (relative stereo) [Example 3O]
discrete.label: condition not met
//
compound: COc1ccc([C@H]2[C@@H](CCCc3ccccc3)C(=O)N2c2ccc(OC)cc2)cc1 [Example 2A]
discrete.label: condition not met

Provenance of the data: patent US5688787A
